# System: MV4-11 cells
# assayComment: MV-4-11 cell viability assay
# conditionDetails: Homo sapiens, MV4-11, 72 h, read-out: MV4-11 EC50
propertyLabel: pEC50
// pEC50 is dimensionless: -log10 of concentration (M)

compound | targetOrSystem | propertyLabel | observedResult
Cc1c(Cl)cccc1S(=O)(=O)Nc1ccc2c(c1)C(=O)N(C1CCC(=O)NC1=O)C2=O (centres unmarked) | MV4-11 cells | pEC50 | 7.28

Now look at this one.
Query string: Tell me its pEC50 given O=C1CCC(N2C(=O)c3ccc(NS(=O)(=O)c4ccccc4OC(F)(F)F)cc3C2=O)C(=O)N1 (centres unmarked) as the entry.
Result string: 8.82

* * *

# targetOrSystem: GSPT1 HiBiT tag protein in HEK293 cells (Homo sapiens, UniProt P15170+Q96SW2)
# Construct: HEK293_hGSPT1_HiBiT tagged cells were generated using CRISPR-Cas12a technology; endogenous in cells; host or cells: HEK293 (genome-edited at the GSPT1 locus, HiBiT knock-in)
# Sequence (P15170 whole entry): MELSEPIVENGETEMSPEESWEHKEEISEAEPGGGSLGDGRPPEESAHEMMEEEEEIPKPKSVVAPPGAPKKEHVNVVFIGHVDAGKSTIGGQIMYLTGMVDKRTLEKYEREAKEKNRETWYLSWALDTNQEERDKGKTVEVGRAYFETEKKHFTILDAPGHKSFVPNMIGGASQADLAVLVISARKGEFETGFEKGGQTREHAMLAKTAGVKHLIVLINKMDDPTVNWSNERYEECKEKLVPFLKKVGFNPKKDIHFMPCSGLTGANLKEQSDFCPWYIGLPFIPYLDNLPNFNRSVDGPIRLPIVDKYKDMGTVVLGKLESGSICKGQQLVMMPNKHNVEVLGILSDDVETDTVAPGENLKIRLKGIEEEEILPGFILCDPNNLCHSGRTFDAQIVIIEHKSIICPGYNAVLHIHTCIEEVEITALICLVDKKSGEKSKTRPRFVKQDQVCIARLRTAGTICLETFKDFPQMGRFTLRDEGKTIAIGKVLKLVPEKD
# Sequence (Q96SW2 whole entry): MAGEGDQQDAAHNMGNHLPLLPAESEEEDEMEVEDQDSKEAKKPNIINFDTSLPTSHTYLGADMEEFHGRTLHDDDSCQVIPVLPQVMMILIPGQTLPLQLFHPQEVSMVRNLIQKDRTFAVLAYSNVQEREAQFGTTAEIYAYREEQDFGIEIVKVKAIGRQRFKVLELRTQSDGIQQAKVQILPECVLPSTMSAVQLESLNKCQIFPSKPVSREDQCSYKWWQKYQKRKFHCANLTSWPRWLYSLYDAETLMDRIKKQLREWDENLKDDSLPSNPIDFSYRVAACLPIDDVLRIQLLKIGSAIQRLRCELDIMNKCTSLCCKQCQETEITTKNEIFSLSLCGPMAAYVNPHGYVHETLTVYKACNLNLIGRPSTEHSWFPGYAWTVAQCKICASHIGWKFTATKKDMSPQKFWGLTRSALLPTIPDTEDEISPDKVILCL
# Sequence (Q16531 2-1140 partner limits assumed): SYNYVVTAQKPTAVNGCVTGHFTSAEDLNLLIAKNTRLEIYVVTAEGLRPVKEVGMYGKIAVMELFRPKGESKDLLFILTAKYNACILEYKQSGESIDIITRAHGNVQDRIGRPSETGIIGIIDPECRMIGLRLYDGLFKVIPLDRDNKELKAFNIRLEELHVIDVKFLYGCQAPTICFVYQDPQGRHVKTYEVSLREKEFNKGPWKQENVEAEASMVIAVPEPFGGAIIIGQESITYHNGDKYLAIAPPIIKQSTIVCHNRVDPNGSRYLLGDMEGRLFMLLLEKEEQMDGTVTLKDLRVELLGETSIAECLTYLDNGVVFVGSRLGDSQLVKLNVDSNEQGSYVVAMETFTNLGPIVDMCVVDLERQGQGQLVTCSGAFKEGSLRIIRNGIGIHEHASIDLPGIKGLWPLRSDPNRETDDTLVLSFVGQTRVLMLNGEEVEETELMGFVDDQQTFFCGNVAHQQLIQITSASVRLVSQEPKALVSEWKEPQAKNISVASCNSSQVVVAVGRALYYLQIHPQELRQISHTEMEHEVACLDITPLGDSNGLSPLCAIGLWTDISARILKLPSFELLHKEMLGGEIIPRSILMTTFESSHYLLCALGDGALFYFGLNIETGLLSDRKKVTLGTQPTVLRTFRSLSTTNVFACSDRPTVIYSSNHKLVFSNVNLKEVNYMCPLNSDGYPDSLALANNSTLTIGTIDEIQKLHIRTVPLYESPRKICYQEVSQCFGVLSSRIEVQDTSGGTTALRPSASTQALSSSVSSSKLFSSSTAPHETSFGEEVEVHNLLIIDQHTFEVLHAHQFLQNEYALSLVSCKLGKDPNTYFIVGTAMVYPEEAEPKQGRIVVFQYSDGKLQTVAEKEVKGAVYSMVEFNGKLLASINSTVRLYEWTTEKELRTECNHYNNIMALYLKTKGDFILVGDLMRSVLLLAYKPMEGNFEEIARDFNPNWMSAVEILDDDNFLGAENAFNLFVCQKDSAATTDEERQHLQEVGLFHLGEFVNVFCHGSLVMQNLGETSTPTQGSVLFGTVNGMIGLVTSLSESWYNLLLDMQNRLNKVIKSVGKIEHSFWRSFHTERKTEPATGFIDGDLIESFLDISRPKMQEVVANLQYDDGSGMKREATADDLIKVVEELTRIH
# assayComment: hGSPT1 HiBiT assay
# Type: cell-based
# conditionDetails: 4 hrs incubation, class symbols, read-out: GSPT1 HiBit EC50
# Protocol: hGSPT1 HiBiT cell line. HEK293_hGSPT1_HiBiT tagged cells were generated using CRISPR-Cas12a technology. […] Additionally, 10% PhiX Sequencing Control V3 (Illumina) was added to the pooled amplicon library prior to running the sample on an Miseq Sequencer System (Illumina) to generate paired 2×250 bp reads. […] hGSPT1 HiBiT assay. […] After 4 hrs incubation, the level of GSPT1 HiBiT tag protein was evaluated using Nano-Glo® HiBiT Lytic Detection System (Promega) according to the manufacturer's instruction.
DC50 by entry:

// below: answered compounds
compound | DC50
O=C1CCC(N2C(=O)c3ccc(NS(=O)(=O)c4ccc(F)cc4Cl)cc3C2=O)C(=O)N1 (centres unmarked) | > 10 µM
O=C1CCC(N2Cc3cc(NS(=O)(=O)c4cccc(OC(F)(F)F)c4)ccc3C2=O)C(=O)N1 (centres unmarked) | < 1 µM

Query string: Please report the measured DC50 for O=C1CCC(N2Cc3cc(NS(=O)(=O)c4ccccc4C(F)(F)F)ccc3C2=O)C(=O)N1 (centres unmarked) tested on GSPT1 HiBiT tag protein in HEK293 cells (Homo sapiens, UniProt P15170+Q96SW2).
Result string: > 10 µM

Query string: Give DC50 only, for CC(C)(C)c1ccc(S(=O)(=O)Nc2ccc3c(c2)CN(C2CCC(=O)NC2=O)C3=O)cc1 (centres unmarked) , using GSPT1 HiBiT tag protein in HEK293 cells (Homo sapiens, UniProt P15170+Q96SW2) data.
Result string: < 1 µM

Query string: Report value only: DC50, GSPT1 HiBiT tag protein in HEK293 cells (Homo sapiens, UniProt P15170+Q96SW2), O=C1CCC(N2Cc3cc(NS(=O)(=O)c4ccccc4)ccc3C2=O)C(=O)N1 (centres unmarked)
Result string: > 10 µM

* * *

# assayComment: Aqueous solubility assay
# Assay type: physicochemical
# conditionDetails: pH = 7.4, in triplicate
propertyLabel: Sol. (aqueous solubility) (µM)
Please state the figure in µM; there is no need to write the unit.

Some molecules with known Sol. (aqueous solubility) results, for comparison:
molecule | Sol. (aqueous solubility) (µM)
Cc1c(Cl)cccc1S(=O)(=O)Nc1ccc2c(c1)C(=O)N(C1CCC(=O)NC1=O)C2=O (centres unmarked) [compound 5] | 64
O=C1CCC(N2C(=O)c3ccc(NS(=O)(=O)c4ccccc4)cc3C2=O)C(=O)N1 (centres unmarked) [compound 20] | 71
O=C1CCC(N2C(=O)c3ccc(NS(=O)(=O)c4ccccc4OC(F)(F)F)cc3C2=O)C(=O)N1 (centres unmarked) [compound 1] | 67

Query string: Provide one value: measured Sol. (aqueous solubility) of O=C1CCC(N2C(=O)c3ccc(NS(=O)(=O)c4cccc(OC(F)(F)F)c4)cc3C2=O)C(=O)N1 (centres unmarked) [compound 2]
Result string: 64

Query string: Please indicate Sol. (aqueous solubility) recorded for O=C1CCC(N2Cc3cc(CNC(=O)C(F)(F)c4ccc(Cl)cc4)ccc3C2=O)C(=O)N1 (centres unmarked) [CC90009, reference compound]
Result string: 77
